Value source: the OligoGym collection

Target: MALAT1
Conditions: ASO, A431, 0.005 µM
After the bases stand the sugars from the 5' end (letter, count) and the backbone: PS all phosphorothioate, else s phosphorothioate and o phosphodiester by linkage. Methylation of C is not given here. k = constrained ethyl (cEt); d = 2'-deoxy (DNA)
measured.metric: target mRNA inhibition (%)

>>> print(df.to_string())
                                biosequence  test_target         measured_metric  measured_result
 0  CATTGGCACACAGCAC (sugars k3 d10 k3, PS)       MALAT1  target mRNA inhibition               21
 1  CCCCAAAAGCTCTATA (sugars k3 d10 k3, PS)       MALAT1  target mRNA inhibition                8
 2  TTACGCAACTGAGCCC (sugars k3 d10 k3, PS)       MALAT1  target mRNA inhibition               11
 3  CAAGATTGCCCCAACA (sugars k3 d10 k3, PS)       MALAT1  target mRNA inhibition               12
 4  GAACAAGTCCTACAAT (sugars k3 d10 k3, PS)       MALAT1  target mRNA inhibition               32
 5  AGATAGCAGCACAACT (sugars k3 d10 k3, PS)       MALAT1  target mRNA inhibition               -5
 6  TAAAAGATCGCCTTCA (sugars k3 d10 k3, PS)       MALAT1  target mRNA inhibition               41
 7  AGGTTACCATAAGTAA (sugars k3 d10 k3, PS)       MALAT1  target mRNA inhibition               10
 8  CTGTGTTATGCCTGGT (sugars k3 d10 k3, PS)       MALAT1  target mRNA inhibition               -3
 9  AGCAGCACGGGCTGTC (sugars k3 d10 k3, PS)       MALAT1  target mRNA inhibition               10
10  CATATTTTGCCCCCAC (sugars k3 d10 k3, PS)       MALAT1  target mRNA inhibition               15
11  CTGCTCGCCTCCTCCG (sugars k3 d10 k3, PS)       MALAT1  target mRNA inhibition               16
12  CCTTCCGCCGCCTCTT (sugars k3 d10 k3, PS)       MALAT1  target mRNA inhibition                3
13  TAACTGATCTGACTTT (sugars k3 d10 k3, PS)       MALAT1  target mRNA inhibition               26
14  TTTTTACCAACCACTC (sugars k3 d10 k3, PS)       MALAT1  target mRNA inhibition               26
15  CTGGAAAAGCTAGGGA (sugars k3 d10 k3, PS)       MALAT1  target mRNA inhibition              -13
16  ACTGAATCCACTTCTG (sugars k3 d10 k3, PS)       MALAT1  target mRNA inhibition               35
17  TTCGGCTTCTTTTATT (sugars k3 d10 k3, PS)       MALAT1  target mRNA inhibition               44
18  AGATTTGAGCTGCAAA (sugars k3 d10 k3, PS)       MALAT1  target mRNA inhibition               11
19  GGTGAATTCAACTGGA (sugars k3 d10 k3, PS)       MALAT1  target mRNA inhibition               49
20  CTCTAATCACTGTCAA (sugars k3 d10 k3, PS)       MALAT1  target mRNA inhibition               11
21  AGACAGACCTAAGGGA (sugars k3 d10 k3, PS)       MALAT1  target mRNA inhibition               21
22  GGAAGATTAAAGTGTG (sugars k3 d10 k3, PS)       MALAT1  target mRNA inhibition               21
